- Experimental Target: human Cot catalytic domain (30-397 amino acids) (Homo sapiens)
- Construct: Purified recombinant human Cot catalytic domain (30-397 amino acids) was purchased from Cama Biosciences; purchased Cama Biosciences (so in the source)
- Test Details: High Throughput Cot Biochemical Assay (KinEASE TR-FRET)
- Experimental Parameters: Cot KinEASE TR-FRET, 400 μM ATP; read-out: IC50 HTRF
log10 of IC50 overview
Scale type: logarithmic (base 10). Underlying IC50 unit: nM.

*Q* Identify the reported log10 of IC50 for the following entry. N#Cc1cnc2c(Cl)cc(NC(c3ccc(F)cc3)c3ccno3)cc2c1Nc1ccc(F)c(Cl)c1 (stereo not drawn)
*A* 3.20

*Q* Look up and state reported log10 of IC50 for "CCN1CCC(n2cc([C@H](Nc3cc(Cl)c4ncc(C#N)c(Nc5ccc(F)c(Cl)c5)c4c3)c3ccc(Cl)cc3)nn2)CC1"
*A* 2.93

*Q* Return value of log10 of IC50 for input "CC(C)(C)N1CCC(n2cc([C@@H](Nc3cc(Cl)c4ncc(C#N)c(Nc5cccnc5)c4c3)c3ccc(Cl)cc3)nn2)CC1" , no commentary.
*A* 2.51

*Q* Give reported log10 of IC50 value for "[2H][C@](Nc1cc(Cl)c2ncc(C#N)c(NCC(C)(C)C)c2c1)(c1cn(C2(CO)COC2)nn1)c1ccccc1Cl"
*A* 1.15

*Q* Look up log10 of IC50 of "CC[C@@H](Nc1c(C#N)cnc2c(C#N)cc(N[C@@H](c3cccc(C(=O)NC)c3)c3cn(C4CC4)nn3)cc12)c1ccccc1" and report it.
*A* 0.00

*Q* Provide one value: measured log10 of IC50 of "Cc1c(-c2ccnnc2)cccc1[C@H](Nc1cc(Cl)c2ncc(C#N)c(NCC(C)(C)C)c2c1)c1cn(C2(C(F)(F)F)CC2)nn1"
*A* 0.30

---

- Experimental Target: human Cot catalytic domain (30-397 amino acids) (Homo sapiens, UniProt P41279)
- Construct: Purified recombinant human Cot catalytic domain (30-397 amino acids) was purchased from Cama Biosciences; purchased Cama Biosciences (so in the source)
- Sequence (P41279 30-397): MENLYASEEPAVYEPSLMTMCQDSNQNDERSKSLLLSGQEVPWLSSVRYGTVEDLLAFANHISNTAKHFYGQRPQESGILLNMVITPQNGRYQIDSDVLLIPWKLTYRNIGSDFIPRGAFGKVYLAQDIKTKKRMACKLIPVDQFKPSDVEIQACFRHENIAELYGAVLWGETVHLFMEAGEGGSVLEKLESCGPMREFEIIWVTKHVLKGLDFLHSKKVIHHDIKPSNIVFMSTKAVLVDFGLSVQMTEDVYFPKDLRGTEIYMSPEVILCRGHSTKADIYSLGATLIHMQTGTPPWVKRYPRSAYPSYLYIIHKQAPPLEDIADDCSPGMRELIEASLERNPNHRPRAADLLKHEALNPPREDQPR
- Test Details: High Throughput Cot Biochemical Assay (KinEASE TR-FRET)
- Experimental Parameters: Cot KinEASE TR-FRET (HTRF) biochemical assay, 400 μM ATP; read-out: IC50 HTRF
As shown below, each of these compounds has a reported log10 IC50 value.
Please interpret these as log10 of IC50 where IC50 is in nM.

// solved cases for log10 IC50 follow
[2H][C@](Nc1cc(Cl)c2ncc(C#N)c(NCC3(C4CC4)CCC3)c2c1)(c1ccc(F)cc1)c1cn(C2CC2)nn1 [Example 260] ... 1.52
[2H][C@](Nc1cc(Cl)c2ncc(C#N)c(N[C@H](CCC#N)c3ccccc3)c2c1)(c1cn(C2CC2)nn1)c1ccccc1Cl [Example 89] ... 0.30
[2H][C@](Nc1cc(Cl)c2ncc(C#N)c(NC3CC3(C)C)c2c1)(c1ccc(F)cc1)c1cn(C2CC2)nn1 (stereo partly shown) [Example 156] ... 1.48
CC1(n2cc([C@@H](Nc3cc(Cl)c4ncc(C#N)c(N[C@H](CCC#N)c5ccccc5)c4c3)c3ccccc3Cl)nn2)CC1 [Example 72] ... 0.30
Cc1ccccc1[C@H](Nc1cc(Cl)c2ncc(C#N)c(NCC(C)(C)C)c2c1)c1cn(C2CC2)nn1 [Compound 3] ... 0.85

*Q* Complete the entry with log10 IC50 for N#CCC[C@@H](Nc1c(C#N)cnc2c(Cl)cc(N[C@H](c3cn(C4COC4)nn3)c3ccccc3Cl)cc12)c1ccccc1 [Example 65]
*A* 0.48

*Q* // fetch log10 IC50 given entry [2H][C@](Nc1cc(Cl)c2ncc(C#N)c(N[C@H](CO)C(C)(C)C)c2c1)(c1ccc(F)cc1)c1cn(C2CC2)nn1 [Example 187]
*A* 1.93
